System: HEK293T
Protocol Details: median enrichment of reporter reads in eGFP-reduced (low/intermediate) vs eGFP-high sorted cells (eGFP-extension fusion abundance) (ratio); higher = stronger loss of eGFP-fusion protein abundance (more destabilising extension)
Experimental Endpoint: median enrichment
Please reply with the number alone, leaving off any unit.

>  <Substance>
SPYRKAGRL [BCKDHB]

>  <median enrichment>
19.5

$$$$
>  <Substance>
RTQTPQSSRLALLRLRGPQKSPPK [TSGA13]

>  <median enrichment>
9.36

$$$$

query: State its median enrichment for this substance: WGWGWTNNQARAEGFMERPLGDPR [S1PR2]
result: 3.36

query: Identify the reported median enrichment for the following entry. LEIWRIF [RNF148]
result: 9.09

query: Quote median enrichment reported for RQADEGATLTQSPQKAKCDSQVSSLTQR [PCARE] please.
result: 0.302

query: Tell us which median enrichment value is on record for SNIRFVIRNTLCLLWSCARWPQMDYRRLQRTRQMEH [BCL2L14]
result: 16.6

query: Given SERQEVEWRR [STAMBPL1] , respond with its median enrichment.
result: 0.37

query: For the substance TTTTTTTTTT [Thr10] , report median enrichment.
result: 0.379

---

Test system: HEK293T
Protocol Details: median enrichment of reporter reads in eGFP-reduced (low/intermediate) vs eGFP-high sorted cells (eGFP-extension fusion abundance) (ratio); higher = stronger loss of eGFP-fusion protein abundance (more destabilising extension)
Overview of reported median enrichment across a group of substances:
Lab note: record the figure alone, no unit after it.

>  <Substance>
LSPLFLPTLQGPHSPYPSVQCTREETLCL [IDH3B]

>  <median enrichment>
7.06

$$$$
>  <Substance>
CGLPSGGGAMWLGS [SMYD1]

>  <median enrichment>
0.906

$$$$
>  <Substance>
SSSSSSSSS [Ser09]

>  <median enrichment>
0.295

$$$$

query: Identify measured median enrichment associated with QTFCSYRLKYLLPIRFFCDMCLPAVN [CCDC59]
result: 6.05

query: Identify the reported median enrichment for the following entry. SPQGRAATRRDMPGRGQDKMQTFFFF [APOL1]
result: 1.16

query: Return the recorded median enrichment value; entry: WATLSVGFFLEDSTLLPHVLSQLQS [CSTF1]
result: 4.6

---

System: HEK293T
Protocol Details: median enrichment of reporter reads in eGFP-reduced (low/intermediate) vs eGFP-high sorted cells (eGFP-extension fusion abundance) (ratio); higher = stronger loss of eGFP-fusion protein abundance (more destabilising extension)
Response key: true (1) means median enrichment >= 8; false (0) means median enrichment < 8.

>  <Substance>
RSGTGRLLIEIHLLGGTGFP [MRNIP]

>  <Discrete Label>
true (1)

$$$$

query: Does RCVHSISEETTHRSFFSLF [GIPC2] have a reported median enrichment of at least 8?
result: true (1)

query: median enrichment >= 8 for WLFCKSVLGGPSLRV [OR9A2] ?
result: false (0)

---

Tested on: HEK293T
Protocol Details: median enrichment of reporter reads in eGFP-reduced (low/intermediate) vs eGFP-high sorted cells (eGFP-extension fusion abundance) (ratio); higher = stronger loss of eGFP-fusion protein abundance (more destabilising extension)
Experimental Endpoint: median enrichment
// no unit, no text: just the number

>  <Substance>
QQQQQQQQQQ [Gln10]

>  <median enrichment>
0.317

$$$$
>  <Substance>
QVPFPLLNIKLNSI [NSMAF]

>  <median enrichment>
2.85

$$$$
>  <Substance>
WRRLVSTHSGAFLISSSHTNHPSLPIVSSSQ [CYP19A1]

>  <median enrichment>
12.8

$$$$
>  <Substance>
SSFIGLNTVCFYQSGHWHCLLFYNHVDTSISKENLSTR [RARS]

>  <median enrichment>
8.65

$$$$
>  <Substance>
WRPRIQH [FAR1]

>  <median enrichment>
1.02

$$$$
>  <Substance>
YKSDCSVRIYIYRFQSNKWGNR [CCNG2]

>  <median enrichment>
4.91

$$$$
>  <Substance>
QNIQVINELCYGIIALLYAG [CC2D2B]

>  <median enrichment>
8.94

$$$$
>  <Substance>
LDAIWIWGLGVCVGGGIKWLWAGLSFPTAGCHIYTISLVRFLYKNLLLT [LSMEM2]

>  <median enrichment>
15.5

$$$$

query: Send back HEK293T median enrichment of LAASRATSPHVGCPSWGREGQSVGWLGRGLALVGQPTPQPERA [RBM10] only.
result: 8.96

query: Provide median enrichment, tested on HEK293T, for RGNMCNVLTKVTGTY [PLEKHS1] .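 Note: lentiviral eGFP-IRES-mCherry reporter pool sorted by FACS 96 h post-transduction, gated on mCherry-high cells, Illumina read counts normalized per million, median across four biological replicates.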
result: 1.76
